- protocol-text: JC-1 mitochondrial signal, unstimulated adipocytes – cell-based, JC-1 fluorescence, 3T3-L1 adipocytes, 24 h, 100 nL compound, profiling panel (AID 1168); note: test concentration not given here
- condition-info: JC-1 mitochondrial fluorescence, higher = more signal, called active from +8 up or from −8 down
Listed below: z-score values for each entry.
endpoint-label: z-score

>>> experimental_result("CCCc1cc2c(n1Cc1ccc(OC)cc1)C(C)C1CN(C(=O)c3ccccc3)C(C)(C(=O)OC)C21 (centres undefined)")
-1.82
>>> experimental_result("O=[N+]([O-])c1ccc(C[n+]2ccc(-c3ccc(CO)cc3)cc2)o1")
-0.886
>>> experimental_result("CC(C)C[C@H]1NC(=O)[C@H](C)NC(=O)[C@@]23C(=O)N[C@@H](Cc4ccccc4)C2[C@H](C)[C@@]2(C)O[C@H]2C3/C=C/C/C=C\\CNC1=O (some centres undefined)")
-0.752
>>> experimental_result("COc1ccc(CCNC(=O)[C@@H]2c3ccccc3C(=O)N(Cc3ccccc3C(F)(F)F)[C@H]2c2ccc(CO)cc2)cc1")
0.996
